Reported pIC50 by item:
Target desc: Pim-1 (Homo sapiens (Human), UniProt P11309)
Sequence (P11309 whole entry): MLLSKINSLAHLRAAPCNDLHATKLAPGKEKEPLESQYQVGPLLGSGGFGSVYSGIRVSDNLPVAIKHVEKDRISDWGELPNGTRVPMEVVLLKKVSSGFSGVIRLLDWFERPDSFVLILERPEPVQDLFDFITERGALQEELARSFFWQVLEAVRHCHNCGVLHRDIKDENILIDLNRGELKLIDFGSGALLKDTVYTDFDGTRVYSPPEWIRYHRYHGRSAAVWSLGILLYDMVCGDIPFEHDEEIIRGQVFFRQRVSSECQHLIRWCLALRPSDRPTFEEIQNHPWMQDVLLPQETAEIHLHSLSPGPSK
Run description: Pim enzyme assay (HTRF, 96-well), Pim-1
Type: biochemical
Assay conditions: full length recombinant Pim-1, biotinylated-BAD (S112) peptide, 10-point curve, 2 h RT, read-out: Pim-1 IC50 IP
pIC50: −log10 of the molar value.
Measured quantity: pIC50

• Cc1nc2cccc(-c3cc4c([nH]3)CCNC4=O)c2nc1NC1CCCCC1 = 8.28
• CN(c1ccccc1)c1cnc2cccc(-c3cc4c([nH]3)CCNC4=O)c2n1 = 8.55
• O=C1NCCc2[nH]c(-c3cccc4ccc(Oc5ccccc5F)nc34)cc21 = 8.21
• COC(=O)[C@@H](C)Nc1nc2c(-c3cc4c([nH]3)CCNC4=O)cccc2nc1C = 7.01
• O=C1NCCc2[nH]c(-c3cccc4ccc(Oc5cccc(F)c5)nc34)cc21 = 8.44
• Cc1nc2cccc(-c3cc4c([nH]3)CCNC4=O)c2nc1NC1(C)COC1 = 8.14
• O=C1NCCc2[nH]c(-c3cccc4ccc(Oc5ccc(Cl)cc5)nc34)cc21 = 7.81
• Cc1nc2cccc(-c3cc4c([nH]3)CCNC4=O)c2nc1Nc1ccccc1 = 8.82
• O=C1NCCc2[nH]c(-c3cccc4ccc(Nc5cccc(Cl)c5)nc34)cc21 = 8.74
• O=C1NCCc2[nH]c(-c3cccc4ccc(Oc5cccnc5)nc34)cc21 = 8.20
• O=C1NCCc2[nH]c(-c3cccc4ccc(Nc5ccccc5)nc34)cc21 = 8.80
• O=C1NCCc2[nH]c(-c3cccc4ccc(Nc5cccc(F)c5)nc34)cc21 = 8.82
• O=C1NCCc2[nH]c(-c3cccc4ccc(Oc5ccccc5)nc34)cc21 = 8.23
• Cc1nc2cccc(-c3cc4c([nH]3)CCNC4=O)c2nc1NC1CCC1 = 8.30
• Cc1nc2cccc(-c3cc4c([nH]3)CCNC4=O)c2nc1Nc1ccccn1 = 7.44
• CCN(c1cccnc1)c1ccc2cccc(-c3cc4c([nH]3)CCNC4=O)c2n1 = 9.52
• O=c1[nH]ccc2[nH]c(-c3cccc4ccc(Nc5c(F)cccc5Cl)nc34)cc12 = 8.70
• O=C1NCCc2[nH]c(-c3cccc4ccc(Nc5cccnc5)nc34)cc21 = 9.52
